- testProtocol: A CellTox Green Cytotoxicity Assay to monitor cytotoxicity in HepG2 cells - 24 hour (AID 1224878); further: nearly all actives have a fitted effect of over 45% in size; further: potency means the concentration at half of the fitted maximal effect
- experimentalSetup: CellTox Green fluorescence; series mostly up to 76.8 µM
Records with an inconclusive call do not appear. Calls of active or inactive are those of the source. The call rests on the fitted dose curve; in most records, active means well fitted activation curve with a large enough effect in the repeat runs; inconclusive means weak or mixed curves; inactive means flat fitted curve, though single readings scatter.
readoutKind: Potency

compound	assayValue
COc1ccc2c(c1)c(CC(=O)O)c(C)n2C(=O)c1ccc(Cl)cc1	inactive
CC12CCC(CC1)C(C)(C)O2	inactive
CC(C)NCC(O)c1ccc(O)c(O)c1 (centres undefined)	inactive
O=C(O)CC(O)C(=O)O (centres undefined)	inactive
CC(=O)Nc1c(I)c(NC(C)=O)c(I)c(C(=O)O)c1I	inactive
O=S1(=O)OC(c2ccc(O)cc2)(c2ccc(O)cc2)c2ccccc21	inactive
O=C(Nc1ncc([N+](=O)[O-])s1)c1cccs1	inactive
Nc1ccc(S(N)(=O)=O)cc1	inactive
C=CCc1ccc(O)c(OC)c1	inactive
COc1cccc(O)c1O	inactive
Cc1cc(C)nc(NS(=O)(=O)c2ccc(N)cc2)n1	inactive
Nc1ccc2c(c1)CN1C(=O)c3ccccc3C1=N2	10.4 µM (active)
Nc1ccc(O)c([N+](=O)[O-])c1	inactive
Cn1c(=O)c2c(ncn2C)n(C)c1=O	inactive
CN[C@H]1CC[C@@H](c2ccc(Cl)c(Cl)c2)c2ccccc21	19 µM (active)
CC(C)C(=O)Nc1ccc([N+](=O)[O-])c(C(F)(F)F)c1	inactive
C/C=C/C=C/C(=O)O	inactive
COc1ccc(CN(CCN(C)C)c2ccccn2)cc1	inactive
COc1ccc2cc(S(=O)(=O)N[C@H](CC(=O)N[C@H](Cc3ccc(CN4[C@H](C)CCC[C@@H]4C)cc3)C(=O)N(C)C(C)C)c3ccc4c(c3)OCO4)ccc2c1	52 µM (active)

---

- testProtocol: qHTS RealTime-Glo MT Cell Viability Assay in HepG2 cells - 40 hour (AID 1224870); further: nearly all actives have a fitted effect of over 50% in size
- experimentalSetup: RealTime-Glo luminescence; series mostly up to 76.8 µM
Results filed as inconclusive are left out. The source made the active and inactive calls. Calls follow the shape of the dose curve; as a rule, active = well fitted cell-killing curve with a large enough effect in the repeat runs; inconclusive = weak or mixed curves, or effect the other way; inactive = flat fitted curve, though single readings scatter.
Outcomes: true (1) = active, false (0) = inactive

molecule	class
C=C(C)C(=O)OCC(C)O (centres undefined)	false (0)
Cc1cn([C@H]2C=C[C@@H](CO)O2)c(=O)[nH]c1=O	false (0)
CCCCC(CC)C(=O)O (centres undefined)	false (0)
O=c1[nH]cc(F)c(=O)[nH]1	false (0)
F[B-](F)(F)F	false (0)
CN1[C@@H]2CC(OC(=O)[C@H](CO)c3ccccc3)C[C@H]1[C@@H]1O[C@@H]12 (some centres undefined)	false (0)
CC(C)C(=O)Nc1ccc([N+](=O)[O-])c(C(F)(F)F)c1	false (0)
O=C1NC(=O)C(c2ccccc2)(c2ccccc2)N1	false (0)
CCCCOC(=O)c1ccc(O)cc1	false (0)
CCOc1ccc(NC(C)=O)cc1	false (0)
NC(=O)n1c(O)c(C(=O)c2cccs2)c2cc(Cl)ccc21	false (0)
COc1ccc(OC(F)(F)F)cc1CN[C@H]1CCCN[C@H]1c1ccccc1	true (1)
O=c1[nH]cnc2c1ncn2[C@H]1CC[C@@H](CO)O1	false (0)
CN[C@H]1CC[C@@H](c2ccc(Cl)c(Cl)c2)c2ccccc21	true (1)

---

- targetUnderTest: Cytochrome P450 2D6 (Homo sapiens)
- testProtocol: Cytochrome P450 Family 2 Subfamily D Member 6 (CYP2D6) small molecule antagonists: luciferase reporter qHTS assay (AID 1671196); further: nearly all actives have a fitted effect of over 50% in size
- experimentalSetup: P450-Glo CYP2D6 enzyme assay, luciferin luminescence, 1 h; series mostly up to 115 µM
Records with an inconclusive call do not appear. Activity calls are given as the source filed them. The call rests on the fitted dose curve; in most records, active means well fitted inhibition curve with a large enough effect in the repeat runs; inconclusive means weak or mixed curves; inactive means no such curve, though single readings can be large or run the other way.
Outcome codes: active, inactive

compound	class
C1CCC(C(CC2CCCCN2)C2CCCCC2)CC1 (stereo not drawn)	active
CCCCC(CC)C(=O)O (stereo not drawn)	inactive
C=C(C)C(=O)OCC(C)O (stereo not drawn)	inactive

Ref: PubChem BioAssay (Tox21)
